target: Fes (UniProt P07332); assay: phosphorylation enrichment, bacterial display (enrichment ratio); higher = better substrate or ligand; peptides without Tyr show the background
Sequence (P07332 whole entry, looked up): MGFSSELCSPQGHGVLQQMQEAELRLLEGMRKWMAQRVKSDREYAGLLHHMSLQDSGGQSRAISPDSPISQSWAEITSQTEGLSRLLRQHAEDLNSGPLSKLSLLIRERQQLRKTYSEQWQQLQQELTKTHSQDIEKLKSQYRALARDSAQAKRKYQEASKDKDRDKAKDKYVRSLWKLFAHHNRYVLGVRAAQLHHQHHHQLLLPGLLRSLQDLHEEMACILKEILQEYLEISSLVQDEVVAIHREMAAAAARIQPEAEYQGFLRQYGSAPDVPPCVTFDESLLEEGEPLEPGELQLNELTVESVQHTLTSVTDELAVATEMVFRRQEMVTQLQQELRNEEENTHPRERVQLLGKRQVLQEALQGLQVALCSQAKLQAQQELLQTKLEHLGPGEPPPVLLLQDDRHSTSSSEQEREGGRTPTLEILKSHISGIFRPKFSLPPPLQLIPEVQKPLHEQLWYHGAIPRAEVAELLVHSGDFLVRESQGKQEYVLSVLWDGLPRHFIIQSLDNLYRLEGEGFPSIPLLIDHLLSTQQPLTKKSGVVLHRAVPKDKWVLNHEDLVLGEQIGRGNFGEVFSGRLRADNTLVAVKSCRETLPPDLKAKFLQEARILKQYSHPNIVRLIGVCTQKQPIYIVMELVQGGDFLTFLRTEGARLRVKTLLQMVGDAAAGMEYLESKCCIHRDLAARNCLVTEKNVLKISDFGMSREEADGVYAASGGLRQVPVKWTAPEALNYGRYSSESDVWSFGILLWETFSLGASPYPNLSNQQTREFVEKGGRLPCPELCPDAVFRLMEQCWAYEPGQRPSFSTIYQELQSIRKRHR
Could you please report measured phosphorylation enrichment for the items listed next?
One number for each entry.

# per-item lookup of phosphorylation enrichment; items listed below
1. TFGVVYKARNK [CDK2_Y19_YF]
2. SRDDFYETIAM [NPY1R_Y347_D346Y_YF]
3. KSMSVYCTPNK [ATP2A2_Y497]
4. LTSKPYAFTAQ [NDUFS1_Y236_R241Q]
5. PIPAAYNRFDQ [CDC73_Y290_YF]

[0.917, 1.21, 0.94, 0.696, 0.778]

Field: phosphorylation enrichment. Fill in for each record below.
1. LDTFIYDAAVL [GRIN2A_Y730_A727T]
2. YIIFIYAMKKK [SLCO1B1_Y645_L643F]
3. LRVHSYKSMQH [DRC7_Y516_P521H]

[1.65, 0.536, 0.883]

// for each sequence below, give its phosphorylation enrichment
1. ILGRTHFVNHE [NEDD4_Y627_Y627H_YF]
2. SVVAPYEPPEV [TP53_Y220_V218A]
3. GCAGKYIAMVM [CYP19A1_Y441]
4. FIIFIYAMKKK [SLCO1B1_Y645_L643F_YF]

1: 0.707; 2: 1.48; 3: 1.07; 4: 1.23

Hey, quick one: what's phosphorylation enrichment for each of these?
1. DRLASYLEKVR [KRT13_Y118]
2. EKKDVYKAGEQ [CFH_Y1008]

0.677
0.675

* * *

molecular target: Fes (UniProt P07332); test: phosphorylation enrichment, bacterial display (enrichment ratio); higher = better substrate or ligand; peptides without Tyr show the background
Is phosphorylation enrichment at least 1? Then condition met. If not, condition not met.

{"CHAIN SEQUENCE": "NTQRPYFKGGG [TYROBP_Y111_YF]", "DISCRETE LABEL": "condition not met"}
{"CHAIN SEQUENCE": "AAVDNYCRHNY [HLA-DRB1_Y107_T106N]", "DISCRETE LABEL": "condition not met"}

# check: phosphorylation enrichment of TLQVMYGCDVG [HLA-B_Y123_S121V] is greater than or equal to 1
condition met

Do the same for ALLTKYSHSSM [DSCC1_Y374] please
condition not met

What do you get for KLPDAYEPLIL [G6PD_Y437_R439P] ?
condition met

Now give it for KKKKQYKDKFL [CASK_Y708_YF] too.
condition not met

Similarly, LESILYESSVV [TRPV4_Y91_T89I] ?
condition met

Same for ERLWDYGMSSS [F8_Y1728]
condition met

// same read-out, input: RRNVFYFSFLL [PTEN_Y177_Y174N_YF]
condition met

// repeat for DDLEVYLKHLL [SACS_Y3477] and report
condition not met

Further, for FQVRRYDCDCD [CRYGS_Y21_G18V] ?
condition met

* * *

Provide the recorded phosphorylation enrichment for the entries that follow.
target: Hck (UniProt P08631); test: phosphorylation enrichment, bacterial display (enrichment ratio); higher = better substrate or ligand; peptides without Tyr show the background
Sequence (P08631 whole entry, looked up): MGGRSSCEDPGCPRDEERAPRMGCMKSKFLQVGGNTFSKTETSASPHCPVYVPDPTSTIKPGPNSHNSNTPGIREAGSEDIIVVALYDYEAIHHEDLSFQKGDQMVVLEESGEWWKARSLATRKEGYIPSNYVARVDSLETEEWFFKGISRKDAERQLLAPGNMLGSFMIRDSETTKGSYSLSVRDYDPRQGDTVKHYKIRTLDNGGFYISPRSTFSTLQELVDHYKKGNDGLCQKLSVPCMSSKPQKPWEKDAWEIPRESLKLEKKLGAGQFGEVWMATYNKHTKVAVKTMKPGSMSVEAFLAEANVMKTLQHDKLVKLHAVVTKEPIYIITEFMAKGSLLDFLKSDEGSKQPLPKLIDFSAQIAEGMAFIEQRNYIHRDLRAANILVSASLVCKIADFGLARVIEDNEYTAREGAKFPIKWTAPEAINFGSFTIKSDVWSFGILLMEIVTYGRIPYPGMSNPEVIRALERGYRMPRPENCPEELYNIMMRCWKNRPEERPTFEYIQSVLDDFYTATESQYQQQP
Answers are plain numbers.

Reference set (8 entries):
{"CHAIN SEQUENCE": "CFSSEYHFVGG [CTSC_Y345_Y340C_YF]", "phosphorylation enrichment": 1.35}
{"CHAIN SEQUENCE": "YIIFIYAMKKK [SLCO1B1_Y645_L643F]", "phosphorylation enrichment": 0.473}
{"CHAIN SEQUENCE": "TYEPNYGTVKR [RAPGEF6_Y1447_Q1452R]", "phosphorylation enrichment": 3.66}
{"CHAIN SEQUENCE": "NTGVFYDLFGG [PTPN11_Y63_D61V_YF]", "phosphorylation enrichment": 2.84}
{"CHAIN SEQUENCE": "HITQVYGFYDE [PPP2CA_Y127_Q122H]", "phosphorylation enrichment": 5.95}
{"CHAIN SEQUENCE": "ERWLKYFPIEQ [HS3ST5_Y244]", "phosphorylation enrichment": 0.436}
{"CHAIN SEQUENCE": "PRDGEYFTLQI [TP53_Y327_L323R]", "phosphorylation enrichment": 2.14}
{"CHAIN SEQUENCE": "MAYDRYVAICS [OR8D4_Y123_C120Y]", "phosphorylation enrichment": 0.745}

Parameters: items (list). Returns: phosphorylation enrichment for each item.
1. NTDETYCIDNE [TUBB2B_Y200]
2. PQAVTYAKVKH [LILRB4_Y360]

1. 0.728
2. 0.509

Please state phosphorylation enrichment for every sequence in the list that follows.
1. CTTIHYNFMRN [TP53_Y234_C238R_YF]
2. SGIFQYIIAKF [FOXL2_Y83_YF]
3. MDNQEYKDAYK [BRDT_Y331]
4. YDCGMYSHLQG [LGR4_Y848]
5. KGFCGYSFDDI [TMEM230_Y110_R108C_YF]

[0.577, 0.546, 0.474, 5.59, 0.456]

Each of the following entries comes with a recorded value; kindly state phosphorylation enrichment for each.
1. YSKDIYKRVTG [PANK2_Y405_N404I]
2. KIDAKYKKKIE [WDR19_Y1230]

1: 0.487; 2: 0.408

* * *

target: EPHB1 (UniProt P54762); experiment: phosphorylation enrichment, bacterial display (enrichment ratio); higher = better substrate or ligand; peptides without Tyr show the background
Sequence (P54762 whole entry, looked up): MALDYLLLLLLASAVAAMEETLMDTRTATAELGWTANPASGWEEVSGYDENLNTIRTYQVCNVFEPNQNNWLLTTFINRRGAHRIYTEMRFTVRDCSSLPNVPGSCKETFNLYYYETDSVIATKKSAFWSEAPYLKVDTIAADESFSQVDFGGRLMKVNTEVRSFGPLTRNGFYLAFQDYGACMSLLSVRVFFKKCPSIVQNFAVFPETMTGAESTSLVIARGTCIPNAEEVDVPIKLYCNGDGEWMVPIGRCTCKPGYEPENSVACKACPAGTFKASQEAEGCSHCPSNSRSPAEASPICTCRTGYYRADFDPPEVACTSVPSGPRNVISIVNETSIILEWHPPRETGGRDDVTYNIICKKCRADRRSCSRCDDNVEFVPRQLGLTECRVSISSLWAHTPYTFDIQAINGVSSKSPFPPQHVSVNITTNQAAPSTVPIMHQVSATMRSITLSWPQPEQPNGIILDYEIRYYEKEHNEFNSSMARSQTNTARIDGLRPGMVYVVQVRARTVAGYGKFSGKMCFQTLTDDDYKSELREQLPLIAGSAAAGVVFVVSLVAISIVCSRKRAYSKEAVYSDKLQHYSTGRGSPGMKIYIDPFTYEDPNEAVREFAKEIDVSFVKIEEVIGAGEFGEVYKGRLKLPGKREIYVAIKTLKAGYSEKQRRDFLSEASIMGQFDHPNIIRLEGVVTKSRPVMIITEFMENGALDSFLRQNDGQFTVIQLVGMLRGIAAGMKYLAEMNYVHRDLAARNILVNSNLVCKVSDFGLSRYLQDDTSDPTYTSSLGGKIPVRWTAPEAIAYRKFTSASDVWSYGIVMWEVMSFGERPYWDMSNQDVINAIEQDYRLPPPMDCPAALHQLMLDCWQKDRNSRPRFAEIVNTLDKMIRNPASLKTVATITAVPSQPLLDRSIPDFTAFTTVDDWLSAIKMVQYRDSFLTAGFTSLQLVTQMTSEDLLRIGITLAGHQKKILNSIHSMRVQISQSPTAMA
Can you tell me phosphorylation enrichment for the items I'm about to list?
Give bare numbers.

{"CHAIN SEQUENCE": "RGVVMYTSKDR [ZG16B_Y136_M133V]", "OBSERVED MEASUREMENT": 0.601}
{"CHAIN SEQUENCE": "TQFWRYFAGNL [SLC25A5_Y112_L111R]", "OBSERVED MEASUREMENT": 0.6}
{"CHAIN SEQUENCE": "TTPAVYARVAK [CTRB2_Y246]", "OBSERVED MEASUREMENT": 0.594}
{"CHAIN SEQUENCE": "PADCRYFTFPQ [GAMT_Y222_A224T_YF]", "OBSERVED MEASUREMENT": 0.613}

Which measured phosphorylation enrichment value corresponds to IHHIDYYKETT [FGFR1_Y653_K656E] ?
0.594

* * *

molecular target: FGFR3 (UniProt P22607); assay: phosphorylation enrichment, bacterial display (enrichment ratio); higher = better substrate or ligand; peptides without Tyr show the background
Sequence (P22607 whole entry, looked up): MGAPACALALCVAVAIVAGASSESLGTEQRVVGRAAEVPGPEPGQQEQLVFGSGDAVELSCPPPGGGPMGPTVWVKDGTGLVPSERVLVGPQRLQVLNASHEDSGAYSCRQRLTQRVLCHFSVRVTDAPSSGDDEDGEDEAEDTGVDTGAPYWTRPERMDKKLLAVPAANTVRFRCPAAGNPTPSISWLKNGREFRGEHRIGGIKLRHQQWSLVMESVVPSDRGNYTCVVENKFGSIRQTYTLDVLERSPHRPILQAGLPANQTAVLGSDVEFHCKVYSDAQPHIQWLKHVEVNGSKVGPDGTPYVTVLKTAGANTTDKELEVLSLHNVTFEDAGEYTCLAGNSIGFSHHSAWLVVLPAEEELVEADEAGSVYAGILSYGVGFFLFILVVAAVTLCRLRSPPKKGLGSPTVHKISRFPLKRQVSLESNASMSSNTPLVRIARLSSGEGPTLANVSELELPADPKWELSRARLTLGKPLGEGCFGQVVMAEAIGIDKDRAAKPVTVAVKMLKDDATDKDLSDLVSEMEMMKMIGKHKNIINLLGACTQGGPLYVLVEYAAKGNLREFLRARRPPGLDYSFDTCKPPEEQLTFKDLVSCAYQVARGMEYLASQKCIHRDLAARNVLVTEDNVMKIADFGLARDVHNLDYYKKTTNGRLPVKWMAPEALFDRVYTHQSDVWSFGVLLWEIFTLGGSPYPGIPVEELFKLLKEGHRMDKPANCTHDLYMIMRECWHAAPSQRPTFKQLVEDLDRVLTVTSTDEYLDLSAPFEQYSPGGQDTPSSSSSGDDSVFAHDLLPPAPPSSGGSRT
Provide the recorded phosphorylation enrichment for the entries that follow.
Give bare numbers.

{"CHAIN SEQUENCE": "GIVEDYRPPFC [ACVRL1_Y421_Y426C]", "phosphorylation enrichment": 0.599}
{"CHAIN SEQUENCE": "GSERDYTYDEL [EIF2S2_Y174_E177D]", "phosphorylation enrichment": 0.614}
{"CHAIN SEQUENCE": "VCDSDYSASRW [LRP5_Y1552]", "phosphorylation enrichment": 0.684}

Would you be so kind as to report phosphorylation enrichment for each listed record?
1. SFLSFYTSHVQ [NEFL_Y443_P440L_YF]
2. AEYGLYGAMVR [VSX2_Y222]
3. LRVHSYKSMQH [DRC7_Y516_P521H]

0.682
0.604
0.69

* * *

Task for the reader: assign each of the following sequences its reported phosphorylation enrichment.
tested on: c-Abl (mouse); assay: phosphorylation enrichment, bacterial display (enrichment ratio); higher = better substrate or ligand; peptides without Tyr show the background
One number for each entry.

{"CHAIN SEQUENCE": "AFEQQYSPIPR [NOX1_Y373]", "phosphorylation enrichment": 0.701}
{"CHAIN SEQUENCE": "LIGRRCDDPEV [HSPA9_Y128_Y128C]", "phosphorylation enrichment": 1}
{"CHAIN SEQUENCE": "ITNLLYHLVGW [GBA_Y412_V414L]", "phosphorylation enrichment": 0.703}
{"CHAIN SEQUENCE": "QFPDIYAREEV [CRX_Y67_V66I_YF]", "phosphorylation enrichment": 0.99}
{"CHAIN SEQUENCE": "KNNDGYIDYAE [MCFD2_Y135]", "phosphorylation enrichment": 0.656}

Give phosphorylation enrichment for each of the items listed below.
1. KYVVVYFRETD [IL17RB_Y447_I451T]
2. YIIFIYAMKKK [SLCO1B1_Y645_L643F]
3. YFCRWYRNQKS [EREG_Y144_R147Q]
4. PFDAEYGGGGG [AKR1B10_Y316_N313D]

0.762
0.465
0.444
1.31

Batch request: phosphorylation enrichment per item, same order as input.
1. SFLFHYADDSF [RAB3C_Y50_R49H]
2. HKLSYYEYDFE [BTK_Y40]

1: 0.718; 2: 1.26

* * *

target: Grb2 SH2 (UniProt P62993); experiment: SH2 binding enrichment of the phosphorylated peptide, bacterial display (enrichment ratio); higher = better substrate or ligand; peptides without Tyr show the background
Sequence (P62993 whole entry, looked up): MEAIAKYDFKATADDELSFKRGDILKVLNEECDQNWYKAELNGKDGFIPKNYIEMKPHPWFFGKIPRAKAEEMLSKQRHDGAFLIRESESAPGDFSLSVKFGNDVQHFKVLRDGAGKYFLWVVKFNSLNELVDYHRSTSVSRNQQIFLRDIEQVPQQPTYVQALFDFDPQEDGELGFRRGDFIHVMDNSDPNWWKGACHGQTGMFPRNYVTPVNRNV
So basically: SH2 binding enrichment at 0.8 or higher? That is 1.0. Lower than 0.8? That is 0.0.

{"CHAIN SEQUENCE": "SARVRYLMAEK [LDHB_Y173_F171V]", "DISCRETE LABEL": 1.0}

Is SH2 binding enrichment at least 0.8? Consider RKTAKYLLKGE [CDH5_Y82_N79T]
1.0

Lookup YAADYYKLLGN [ROR2_Y646]
0.0

How about this sequence: LYEDHYLLGTS [ASS1_Y87_R86H]
1.0

Please answer likewise for IGERTYGQVFK [CDK13_Y716_G714R_YF]
1.0

What would you report for HRDDGYMPMSP [IRS1_Y612_T608R] ?
0.0

Likewise for YRQNGYIPGSN [PCDHGA1_Y895_V894G] ?
1.0

Now give it for DGMADCSDPSY [CDC5L_Y459_Y459C] too.
1.0

Try EIHTQYEAMAS [GFAP_Y242_R239H] next.
1.0

Param item: TLQVMYGCDVG [HLA-B_Y123_S121V]
1.0

Can you check HEKKVYSFCGT [RPS6KA3_Y226_A225V] next?
1.0

Repeat with MNPPPYSQFLS [FGF23_Y154]
0.0

What do you get for PRDGEYFTLQI [TP53_Y327_L323R] ?
0.0
